Recorded pKd by entry
- target-or-test-system: FKBP51 (Homo sapiens (Human))
- Sequence (Q13451 whole entry): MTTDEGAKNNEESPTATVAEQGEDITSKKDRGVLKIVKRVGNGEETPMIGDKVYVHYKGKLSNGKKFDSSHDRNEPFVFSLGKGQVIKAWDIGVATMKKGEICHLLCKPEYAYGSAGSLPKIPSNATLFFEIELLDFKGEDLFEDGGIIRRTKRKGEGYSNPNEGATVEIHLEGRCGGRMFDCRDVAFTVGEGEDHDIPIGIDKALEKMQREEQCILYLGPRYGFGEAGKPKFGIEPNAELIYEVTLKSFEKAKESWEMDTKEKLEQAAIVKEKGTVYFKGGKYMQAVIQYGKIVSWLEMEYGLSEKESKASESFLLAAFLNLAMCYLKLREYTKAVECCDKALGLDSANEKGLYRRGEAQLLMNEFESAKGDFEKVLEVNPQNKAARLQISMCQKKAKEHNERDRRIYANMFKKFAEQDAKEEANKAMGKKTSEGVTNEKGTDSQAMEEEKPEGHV
- experimental-protocol: SPR assay to determine binding affinity to FKBP51 (direct binding)
- condition-set: immobilized biotinylated avi-FKBP51
pKd: −log10 of the molar value.

{"columns": ["compound", "pKd"],
 "data": [
  ["CO[C@@H]1C[C@H](C[C@@H](C)[C@@H]2CC(=O)[C@H](C)/C=C(\\C)[C@@H](O)[C@@H](OC)C(=O)[C@H](C)C[C@H](C)/C=C/C=C/C=C(\\C)[C@@H](OC3CCS(=O)(=O)C3)C[C@@H]3CC[C@@H](C)[C@@](O)(O3)C(=O)C(=O)N3CCCC[C@H]3C(=O)O2)CC[C@H]1O (some centres unmarked)", "< 7.00"],
  ["COCCOCCS(=O)(=O)NC1CC2CCC(C)C(O)(O2)C(=O)C(=O)N2CCCCC2C(=O)OC(C(C)CC2CCC(OCCCO)C(OC)C2)CC(=O)C(C)C=C(C)C(O)C(OC)C(=O)C(C)CC(C)C=CC=CC=C1C (centres unmarked) [Compound 3]", "< 7.00"],
  ["COC1C(=O)C(C)CC/C=C/C=C/C=C(\\C)[C@H](NS(=O)(=O)CCO)C[C@H]2CC[C@H](C)[C@](O)(O2)C(=O)C(=O)N(C)C(C)C(=O)OC([C@H](C)C[C@@H]2CC[C@@H](OC3CC3)[C@H](OC)C2)CC(=O)C(C)/C=C(\\C)C1O (some centres unmarked)", "7.00 to 8.00"],
  ["COC1C(=O)C(C)CC/C=C/C=C/C=C(\\C)C(CCO)C[C@H]2CC[C@H](C)[C@](O)(O2)C(=O)C(=O)N(C)C(C)C(=O)OC([C@H](C)C[C@@H]2CC[C@@H](OCCCS(C)(=O)=O)[C@H](OC)C2)CC(=O)C(C)/C=C(\\C)C1O (some centres unmarked)", "7.00 to 8.00"],
  ["COC1C[C@H]2CC[C@H](C)[C@](O)(O2)C(=O)C(=O)N(C)C(C)C(=O)OC([C@H](C)C[C@@H]2CC[C@@H](OCCCS(C)(=O)=O)[C@H](OC)C2)CC(=O)C(C)/C=C(\\C)C(O)C(OC)C(=O)C(C)CC/C=C/C=C/C=C/1C (some centres unmarked)", "7.00 to 8.00"],
  ["CO[C@@H]1C[C@H](C[C@@H](C)[C@@H]2CC(=O)[C@H](C)/C=C(\\C)[C@@H](O)[C@@H](OC)C(=O)[C@H](C)C[C@H](C)/C=C/C=C/C=C(\\C)[C@H](OCCCO)C[C@@H]3CC[C@@H](C)[C@@](O)(O3)C(=O)C(=O)N3CCCC[C@H]3C(=O)O2)CC[C@H]1OCCCS(C)(=O)=O", "7.00 to 8.00"],
  ["COC1CC(CC(C)C2CC(=O)C(C)C=C(C)C(O)C(OC)C(=O)C(C)CC(C)C=CC=CC=C(C)C(OC3CC3)CC3CCC(C)C(O)(O3)C(=O)C(=O)N3CCCCC3C(=O)O2)CCC1OCCO (centres unmarked) [Compound 46]", "< 7.00"],
  ["CCOC(=O)COC1CCC(CC(C)C2CC(=O)C(C)C=C(C)C(O)C(OC)C(=O)C(C)CC(C)C=CC=CC=C(C)C(OC3CC3)CC3CCC(C)C(O)(O3)C(=O)C(=O)N3CCCCC3C(=O)O2)CC1OC (centres unmarked)", "< 7.00"]
]}
